Experiment: Cytotoxicity against bovine MDBK cells assessed as decrease in cell viability after 72 hrs by MTT assay
Assay type: cell-based, Bos taurus
Conditions: cattle
CC50 at 72 h strictly less than 20 µM = condition met. Otherwise condition not met.

IN: Criterion: CC50 at 72 h strictly below 20 µM. Is it met by NS(=O)(=O)c1ccc(N2N=C(c3ccc(Oc4ccccc4)cc3)CC2c2ccc(Cl)cc2)cc1 (centres undefined) ?
OUT: condition met

IN: Criterion: CC50 at 72 h strictly below 20 µM. Is it met by Cc1ccc(C2CC(c3ccc(Oc4ccccc4)cc3)=NN2c2ccc(S(N)(=O)=O)cc2)cc1 (centres undefined) ?
OUT: condition not met

IN: Criterion: CC50 at 72 h strictly below 20 µM. Is it met by NS(=O)(=O)c1ccc(N2N=C(c3ccc(Oc4ccccc4)cc3)CC2c2cccc(F)c2)cc1 (centres undefined) ?
OUT: condition met

IN: Criterion: CC50 at 72 h strictly below 20 µM. Is it met by NS(=O)(=O)c1ccc(N2N=C(c3ccccc3)CC2c2ccc(F)cc2)cc1 (centres undefined) ?
OUT: condition met

IN: Criterion: CC50 at 72 h strictly below 20 µM. Is it met by NS(=O)(=O)c1ccc(N2N=C(c3ccc(Oc4ccccc4)cc3)CC2c2ccccc2F)cc1 (centres undefined) ?
OUT: condition not met

IN: Criterion: CC50 at 72 h strictly below 20 µM. Is it met by NS(=O)(=O)c1ccc(N2N=C(c3ccccc3)CC2c2ccccc2F)cc1 (centres undefined) ?
OUT: condition met

IN: Criterion: CC50 at 72 h strictly below 20 µM. Is it met by NS(=O)(=O)c1ccc(N2N=C(c3ccc(OCc4ccccc4)cc3)CC2c2ccc(Cl)cc2)cc1 (centres undefined) ?
OUT: condition met

IN: Criterion: CC50 at 72 h strictly below 20 µM. Is it met by NS(=O)(=O)c1ccc(N2N=C(c3ccccc3)CC2c2cccc(Cl)c2)cc1 (centres undefined) ?
OUT: condition met

IN: Criterion: CC50 at 72 h strictly below 20 µM. Is it met by NS(=O)(=O)c1ccc(N2N=C(c3ccccc3)CC2c2ccccc2Cl)cc1 (centres undefined) ?
OUT: condition met

* * *

Assay: Antiviral activity against Human enterovirus B Faulkner ATCC VR 185 infected in African green monkey Vero 76 cells assessed as protection against virus-induced cytopathic effect after 3 days by crystal violet staining-based plaque reduction assay
Format: functional, cell-based
Details: Faulkner ATCC VR 185, Vero 76, 72 h
pEC50: −log10 of the molar value.
Recorded Endpoint: pEC50

IN: Fill blank: measured pEC50 of the compound NS(=O)(=O)c1ccc(N2N=C(c3ccccc3)CC2c2ccccc2F)cc1 (stereo unspecified) is ____.
OUT: < 4.55

IN: Fill blank: measured pEC50 of the compound Cc1ccccc1C1CC(c2ccccc2)=NN1c1ccc(S(N)(=O)=O)cc1 (stereo unspecified) is ____.
OUT: < 4.62

IN: Fill blank: measured pEC50 of the compound Cc1ccc(C2CC(c3ccc(Oc4ccccc4)cc3)=NN2c2ccc(S(N)(=O)=O)cc2)cc1 (stereo unspecified) is ____.
OUT: < 4.07

IN: Fill blank: measured pEC50 of the compound NS(=O)(=O)c1ccc(N2N=C(c3ccc(Oc4ccccc4)cc3)CC2c2ccc(Cl)cc2)cc1 (stereo unspecified) is ____.
OUT: < 4.06

IN: Fill blank: measured pEC50 of the compound Cc1cccc(C2CC(c3ccccc3)=NN2c2ccc(S(N)(=O)=O)cc2)c1 (stereo unspecified) is ____.
OUT: < 4.60

IN: Fill blank: measured pEC50 of the compound Cc1cccc(C2CC(c3ccc(OCc4ccccc4)cc3)=NN2c2ccc(S(N)(=O)=O)cc2)c1 (stereo unspecified) is ____.
OUT: 5.10

IN: Fill blank: measured pEC50 of the compound NS(=O)(=O)c1ccc(N2N=C(c3ccc(OCc4ccccc4)cc3)CC2c2ccc(F)cc2)cc1 (stereo unspecified) is ____.
OUT: < 4.05

IN: Fill blank: measured pEC50 of the compound NS(=O)(=O)c1ccc(N2N=C(c3ccccc3)CC2c2ccccc2)cc1 (stereo unspecified) is ____.
OUT: < 4.66

IN: Fill blank: measured pEC50 of the compound Cc1ccc(C2CC(c3ccccc3)=NN2c2ccc(S(N)(=O)=O)cc2)cc1 (stereo unspecified) is ____.
OUT: < 4.70

IN: Fill blank: measured pEC50 of the compound NS(=O)(=O)c1ccc(N2N=C(c3ccc(Oc4ccccc4)cc3)CC2c2cccc(Cl)c2)cc1 (stereo unspecified) is ____.
OUT: < 4.06

IN: Fill blank: measured pEC50 of the compound Cc1cc(CCCOc2c(C)cc(-c3noc(C(F)(F)F)n3)cc2C)on1 is ____.
OUT: 8.30

IN: Fill blank: measured pEC50 of the compound NS(=O)(=O)c1ccc(N2N=C(c3ccc(OCc4ccccc4)cc3)CC2c2cccc(Cl)c2)cc1 (stereo unspecified) is ____.
OUT: < 4.07

IN: Fill blank: measured pEC50 of the compound NS(=O)(=O)c1ccc(N2N=C(c3ccc(OCc4ccccc4)cc3)CC2c2cccc(F)c2)cc1 (stereo unspecified) is ____.
OUT: 5.07

IN: Fill blank: measured pEC50 of the compound NS(=O)(=O)c1ccc(N2N=C(c3ccc(OCc4ccccc4)cc3)CC2c2ccccc2)cc1 (stereo unspecified) is ____.
OUT: < 4.00

IN: Fill blank: measured pEC50 of the compound NS(=O)(=O)c1ccc(N2N=C(c3ccc(Oc4ccccc4)cc3)CC2c2cccc(F)c2)cc1 (stereo unspecified) is ____.
OUT: 5.38

IN: Fill blank: measured pEC50 of the compound Cc1ccccc1C1CC(c2ccc(Oc3ccccc3)cc2)=NN1c1ccc(S(N)(=O)=O)cc1 (stereo unspecified) is ____.
OUT: < 4.05

IN: Fill blank: measured pEC50 of the compound NS(=O)(=O)c1ccc(N2N=C(c3ccc(Oc4ccccc4)cc3)CC2c2ccccc2)cc1 (stereo unspecified) is ____.
OUT: 5.46

IN: Fill blank: measured pEC50 of the compound NS(=O)(=O)c1ccc(N2N=C(c3ccc(Oc4ccccc4)cc3)CC2c2ccc(F)cc2)cc1 (stereo unspecified) is ____.
OUT: 5.22

IN: Fill blank: measured pEC50 of the compound NS(=O)(=O)c1ccc(N2N=C(c3ccccc3)CC2c2ccc(F)cc2)cc1 (stereo unspecified) is ____.
OUT: < 4.64

IN: Fill blank: measured pEC50 of the compound NS(=O)(=O)c1ccc(N2N=C(c3ccc(OCc4ccccc4)cc3)CC2c2ccccc2F)cc1 (stereo unspecified) is ____.
OUT: < 4.00

IN: Fill blank: measured pEC50 of the compound Cc1ccc(C2CC(c3ccc(OCc4ccccc4)cc3)=NN2c2ccc(S(N)(=O)=O)cc2)cc1 (stereo unspecified) is ____.
OUT: 4.89

IN: Fill blank: measured pEC50 of the compound Cc1cccc(C2CC(c3ccc(Oc4ccccc4)cc3)=NN2c2ccc(S(N)(=O)=O)cc2)c1 (stereo unspecified) is ____.
OUT: < 4.09

IN: Fill blank: measured pEC50 of the compound NS(=O)(=O)c1ccc(N2N=C(c3ccccc3)CC2c2cccc(Cl)c2)cc1 (stereo unspecified) is ____.
OUT: < 4.68

IN: Fill blank: measured pEC50 of the compound NS(=O)(=O)c1ccc(N2N=C(c3ccccc3)CC2c2ccc(Cl)cc2)cc1 (stereo unspecified) is ____.
OUT: < 4.68

IN: Fill blank: measured pEC50 of the compound NS(=O)(=O)c1ccc(N2N=C(c3ccc(OCc4ccccc4)cc3)CC2c2ccc(Cl)cc2)cc1 (stereo unspecified) is ____.
OUT: < 4.09

IN: Fill blank: measured pEC50 of the compound NS(=O)(=O)c1ccc(N2N=C(c3ccc(OCc4ccccc4)cc3)CC2c2ccccc2Cl)cc1 (stereo unspecified) is ____.
OUT: < 4.04

IN: Fill blank: measured pEC50 of the compound NS(=O)(=O)c1ccc(N2N=C(c3ccc(Oc4ccccc4)cc3)CC2c2ccccc2F)cc1 (stereo unspecified) is ____.
OUT: 5.15

IN: Fill blank: measured pEC50 of the compound NS(=O)(=O)c1ccc(N2N=C(c3ccccc3)CC2c2cccc(F)c2)cc1 (stereo unspecified) is ____.
OUT: < 4.62

IN: Fill blank: measured pEC50 of the compound NS(=O)(=O)c1ccc(N2N=C(c3ccccc3)CC2c2ccccc2Cl)cc1 (stereo unspecified) is ____.
OUT: < 4.59

IN: Fill blank: measured pEC50 of the compound Cc1ccccc1C1CC(c2ccc(OCc3ccccc3)cc2)=NN1c1ccc(S(N)(=O)=O)cc1 (stereo unspecified) is ____.
OUT: < 4.00

IN: Fill blank: measured pEC50 of the compound NS(=O)(=O)c1ccc(N2N=C(c3ccc(Oc4ccccc4)cc3)CC2c2ccccc2Cl)cc1 (stereo unspecified) is ____.
OUT: 4.98
